Consider the following compounds and their measured SBP (mmHg) Change from Vehicle readings.
Tested on: Nx rats (5/6 nephrectomy, hypertensive chronic kidney disease)
Test Details: Nx rats treated with various HIF prolyl hydroxylase inhibitors, change in systolic blood pressure after four weeks, Example 4
Type: in vivo, rat
Condition Context: 20 mg/kg oral
Numbers only here, please. The scale is mmHg.

Worked set:
| Compound Structure String | SBP (mmHg) Change from Vehicle |
| --- | --- |
| N#Cc1nc(C(=O)NCC(=O)O)c(O)c2c(Oc3ccccc3)cccc12 | −11.00 |
| COc1cccc(Cn2ccc3c(O)c(C(=O)NCC(=O)O)nc(C#N)c32)c1 | −18.55 |
| CC(C)Oc1ccc2c(O)c(C(=O)NCC(=O)O)nc(C#N)c2c1 | −24.73 |

Let us examine a further case.
Looking for the measured SBP (mmHg) Change from Vehicle of COc1ccc(Cn2c(Cl)c(Cl)c3c(O)c(C(=O)NCC(=O)O)nc(C#N)c32)cc1 , can you help? −15.73
